Recorded TGI values for a group of compounds are listed next.
# System: SN12C renal
# Protocol: NCI tumour cell line growth inhibition, 48 h

- Structure smiles: "C/C(=N\\NS(=O)(=O)c1ccccc1)c1ccc[n+]([O-])n1"
  Unit symbol: "µM"
  Result comparator: ">"
  TGI: 100
- Structure smiles: "CCOC(=O)/C=C1\\C[C@H](NC(=O)OCc2ccccc2)C(=O)N1CC(=O)OCC"
  Unit symbol: "µM"
  Result comparator: ">"
  TGI: 100
- Structure smiles: "CCCNC(=O)c1cc(NC(=O)c2cc(NC(=O)CCS(=O)(=O)OC)cn2C)cn1C"
  Unit symbol: "µM"
  Result comparator: "="
  TGI: 29.7
- Structure smiles: "O=C1/C(=C/c2cccc(F)c2)CN(C(=O)C(Cl)Cl)C/C1=C\\c1cccc(F)c1"
  Unit symbol: "µM"
  Result comparator: "="
  TGI: 0.475
- Structure smiles: "S=c1sscc1N1CCSc2ssc(=S)c21"
  Unit symbol: "µM"
  Result comparator: ">"
  TGI: 100

---

# Test system: SF-539 CNS
# Protocol: NCI tumour cell line growth inhibition, 48 h; in the data active = GI50 below about 0.43 µM; inactive = the rest
Classes used: active, inactive

- Compound: "COc1ccc2c(c1)NC(=O)CN2c1nc(C)nc2ccccc12"
  Class name: "active"
- Compound: "Nc1nc(N)c(-c2ccc(Cl)cc2)c(/C=C/c2ccc([N+](=O)[O-])cc2)n1"
  Class name: "inactive"
- Compound: "O=C1CC2OCC=C3CN4CCC56c7ccccc7N1C5C2C3CC46 (stereo not given) (tested in a mixture with another compound)"
  Class name: "inactive"
- Compound: "CCC(=O)Oc1ccc(/C=N/NC(N)=S)nc1"
  Class name: "inactive"
- Compound: "O=C(N/N=C/c1cccc(O)c1)c1ccc(C(F)(F)F)nc1Nc1cccc(C(F)(F)F)c1"
  Class name: "inactive"
- Compound: "C[C@H](c1ccc(Cl)cc1[N+](=O)[O-])N1C(=O)c2cc(I)ccc2NC(=O)[C@H]1c1ccc(Cl)cc1"
  Class name: "inactive"
- Compound: "O=C1C=C(OCC=C(Cl)Cl)C(=O)c2ccccc21"
  Class name: "inactive"
- Compound: "COc1ccc(CNC(=O)c2c(C)n([O-])c3cc(F)c(F)cc3[n+]2=O)cc1"
  Class name: "inactive"
- Compound: "CC(=O)Nc1nc(C)c(-c2cc3c(c(S(C)(=O)=O)c2)C(=O)N([C@@H](C)C2CC2)C3)s1"
  Class name: "inactive"
- Compound: "COc1ccc(/C=C/C(=O)/C=C(/C=C/c2ccc(OC)c(OC)c2OC)OB(F)F)c(OC)c1OC"
  Class name: "inactive"

---

Recorded GI50 values for a group of compounds are listed next.
# Test system: HT29 colon
# Protocol: NCI tumour cell line growth inhibition, 48 h
Outcome measure: GI50

- Compound: "CNCC1CCn2c(c(C3=C(c4cn(C)c5ccccc45)C(=O)NC3=O)c3ccccc32)C1 (centres undefined)"
  Observed value: "2790 nM"
- Compound: "O=C1CC2OCC=C3CN4CCC56c7ccccc7N1C5C2C3CC46 (centres undefined) (tested in a mixture with another compound)"
  Observed value: "> 50 µg/mL"
- Compound: "O=C1C=C(OCC=C(Cl)Cl)C(=O)c2ccccc21"
  Observed value: "11700 nM"
- Compound: "COc1cc(OC)c2c(c1Cl)O[C@]1(C2=O)C(OCc2ccccc2)=CC(=O)C[C@H]1C"
  Observed value: "534 nM"
